tested on: Staphylococcus aureus; assay: Compound was tested in vitro for antibacterial activity against Staphylococcus aureus ATCC 25923; assay type: functional
reportedMetric: MIC (µg/mL)

Before answering, review these 2 worked examples.
CCc1nn(-c2cc(Cl)cc(Cl)c2)c2nc(Oc3ccc4c(O)c(NC(C)=O)c(=O)oc4c3)nc(N)c12    16
CO[C@@H]1[C@@H](OC(N)=O)[C@@H](O)[C@H](Oc2ccc3c(O)c(NC(=O)c4ccc(O)c(CC=C(C)C)c4)c(=O)oc3c2C)OC1(C)C    0.25

[a] CCCCNC(=O)Nc1c(O)oc2cc(Oc3nc(N)c4c(CC)nn(-c5cc(Cl)cc(Cl)c5)c4n3)ccc2c1=O
[b] CCc1nn(-c2cc(Cl)cc(Cl)c2)c2nc(Sc3cccc(C(=O)O)c3)nc(N)c12
// select label with min value of measured MIC from [ a , b ] Label of pick, please. a
(a: 4 µg/mL, b: 16 µg/mL)
